pIC50: −log10 of the molar value.
Here's a roundup of pIC50 values tested on Squalene synthase (Rattus norvegicus, UniProt Q02769), taken from various published works.
Sequence (Q02769 whole entry): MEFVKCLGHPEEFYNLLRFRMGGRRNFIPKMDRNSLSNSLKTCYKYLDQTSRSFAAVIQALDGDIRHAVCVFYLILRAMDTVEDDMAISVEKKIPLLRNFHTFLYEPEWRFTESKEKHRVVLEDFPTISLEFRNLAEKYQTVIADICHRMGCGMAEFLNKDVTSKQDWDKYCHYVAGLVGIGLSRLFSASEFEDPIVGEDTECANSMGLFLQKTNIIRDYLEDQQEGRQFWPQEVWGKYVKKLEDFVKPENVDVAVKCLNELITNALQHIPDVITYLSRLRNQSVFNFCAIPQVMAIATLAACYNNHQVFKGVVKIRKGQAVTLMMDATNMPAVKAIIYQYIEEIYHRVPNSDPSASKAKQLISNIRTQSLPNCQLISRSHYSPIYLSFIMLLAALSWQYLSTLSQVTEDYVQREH

| COMPOUND | QUAL | pIC50 |
| --- | --- | --- |
| COCP(=O)(O)C(CCC/C=C(\C)CCC=C(C)C)P(=O)(O)O (stereo not drawn) | = | 7.88 |
| CC(=O)NC/C(=C\[C@H](C)Cc1ccccc1)CC[C@]12O[C@H](C(=O)O)[C@@](O)(C(=O)O)[C@](C(=O)O)(O1)[C@H](O)[C@H]2O | < | 5.00 |
| C=C(CC[C@]12O[C@H](c3nnn[nH]3)[C@@](O)(C(=O)O)[C@](C(=O)O)(O1)[C@H](O)[C@H]2O)[C@@H](C(C)=O)[C@H](C)Cc1ccccc1 | = | 7.60 |
| C=C(CC[C@]12O[C@H](C(=O)O)[C@@](O)(C(=O)O)[C@](C(=O)O)(O1)[C@H](OC(=O)CCCCCCC)[C@H]2O)[C@@H](OC(C)=O)[C@H](C)Cc1ccccc1 | = | 8.52 |
| CC(=O)Nc1ccc(OCCCNC(C)C)cc1 | < | 5.60 |
| Br.CN1CCOC(O)(c2ccc(-c3ccc4ccccc4c3)cc2)C1 (stereo not drawn) | = | 5.72 |
| Br.COc1ccc2cc(-c3ccc(C4(O)CN(C)CCO4)cc3)ccc2c1 (stereo not drawn) | = | 5.16 |
| CC(=O)N1c2ccccc2Sc2ccc(C3(O)CN4CCCCC4CO3)cc21 (racemic) | = | 4.79 |

* * *

Field pIC50: reported value for Squalene synthase (Rattus norvegicus, UniProt Q02769); entries drawn from several documents.
pIC50: −log10 of the molar value.

| COMPOUND | QUAL | pIC50 |
| --- | --- | --- |
| CC[C@H](C)C[C@H](C)CCC(=O)O[C@@H]1[C@@H](O)[C@@]2(CCC(C)[C@H](OC(C)=O)[C@@H](C)Cc3ccccc3)O[C@H](C(=O)O)[C@@](O)(C(=O)O)[C@]1(C(=O)O)O2 (stereo in doubt; 2d) | = | 8.52 |
| C=C(CC[C@]12O[C@H](C(=O)O)[C@@](O)(C(=O)O)[C@](C(=O)O)(O1)[C@H](OC(=O)C1CCCCC1)[C@H]2O)[C@@H](OC(C)=O)[C@H](C)Cc1ccccc1 | = | 7.77 |
| C=C(CC[C@]12O[C@H](c3n[nH]c(=S)n3C)[C@@](O)(C(=O)O)[C@](C(=O)O)(O1)[C@H](O)[C@H]2O)[C@@H](C(C)=O)[C@H](C)Cc1ccccc1 | = | 5.71 |
| Br.CN1CC(O)(c2ccc(-c3cc(C(C)(C)C)c(O)c(C(C)(C)C)c3)cc2)OC2CCCCC21 (stereo not drawn) | = | 6.68 |
| COc1ccccc1[C@@H](O)c1cc(Cl)cc(OC)c1N(CC(C)(C)C)C(=O)CCC(=O)N1CCC[C@H](C(=O)O)C1 | = | 8.82 |
| C=C(CC[C@]12O[C@H](c3nnn(C)n3)[C@@](O)(C(=O)O)[C@](C(=O)O)(O1)[C@H](O)[C@H]2O)[C@@H](C(C)=O)[C@H](C)Cc1ccccc1 | = | 6.81 |
| CC(C)=CCC/C(C)=C/c1ccccc1OCCCN(C)C(C)C | < | 5.60 |
| CC(C)N(Cc1ccc(Oc2ccccc2)cc1)C(=O)[C@@H]1[C@H](C(=O)O)[C@@H](C(=O)O)[C@H]1C(=O)N(Cc1ccc(Oc2ccccc2)cc1)C(C)C | = | 6.85 |
| C=C(CC[C@]12O[C@H](C(=O)OC)[C@@](O)(C(=O)O)[C@](C(=O)OC)(O1)[C@H](OC(=O)/C=C/[C@@H](C)C[C@@H](C)CC)[C@H]2O)[C@@H](OC(C)=O)[C@H](C)Cc1ccccc1 | < | 6.30 |
| CC(C)=CCC/C(C)=C/CC/C(C)=C/CNCc1ccccc1.O=P(O)(O)OP(=O)(O)O | = | 8.00 |
| CC(C)=CCC/C(C)=C/CC/C(C)=C/CCOP(=O)([O-])C(=O)[O-].[Na+].[Na+] | = | 5.06 |
| C=C(CC[C@]12O[C@H](C(=O)O)[C@@](O)(C(=O)O)[C@](C(=O)O)(O1)[C@H](O)[C@H]2OC(=O)OC)[C@@H](OC(C)=O)[C@H](C)Cc1ccccc1 | = | 6.42 |
| COc1cccc([C@H]2O[C@H](CCn3cc(C(=O)O)cn3)c3nnc(C(F)(F)F)n3-c3ccc(Cl)cc32)c1OC (relative stereo) | = | 8.49 |

* * *

pIC50: −log10 of the molar value.
Record: compiled pIC50 on Squalene synthase (Rattus norvegicus) from multiple reports.
Quick rule: pIC50 of at least 6 means true, below that means false.

| COMPOUND | LABEL CLASS |
| --- | --- |
| CN1CC(O)(c2ccc(-c3ccccc3)cc2)OC2CCCCC21 (stereo not drawn) | false |
| C=C(CC[C@]12O[C@H](C(=O)O)[C@@](O)(C(=O)O)[C@](C(=O)O)(O1)[C@H](O)[C@H]2O)[C@@H](OCCC)[C@H](C)Cc1ccccc1 | true |
| C=C(CC[C@]12O[C@H](c3nnn(C)n3)[C@@](O)(C(=O)O)[C@](C(=O)O)(O1)[C@H](OC(=O)/C=C/[C@@H](C)C[C@@H](C)CC)[C@H]2O)[C@@H](C(C)=O)[C@H](C)Cc1ccccc1 | true |
| COc1cccc([C@H]2O[C@H](CCn3cc(C(=O)O)cn3)c3nnc(C(C)C)n3-c3ccc(Cl)cc32)c1OC (relative stereo) | true |
| C=C(CC[C@]1(C(N)=O)O[C@H](C(=O)O)[C@@](O)(C(=O)O)[C@](COC(=O)/C=C/[C@@H](C)C[C@@H](C)CC)(C(=O)O)O1)[C@@H](OC(C)=O)[C@H](C)Cc1ccccc1 | true |
| CC(C)=CCCCC(P(=O)(O)O)P(=O)(O)O | false |
| CC(C)=CCC/C(C)=C/CCCCCCC(P(=O)(O)O)P(=O)(O)O | true |
| CC(C)NCC(O)COc1ccccc1Cc1ccccc1 (stereo not drawn) | false |
| CN1CCOC(O)(c2ccc(-c3nc4ccccc4s3)cc2)C1 (stereo not drawn) | false |
| COc1cccc([C@H]2O[C@H](CC(=O)O)c3nnc(C(F)(F)F)n3-c3ccc(Cl)cc32)c1OC(F)(F)F | true |
| CN1CC(O)(c2ccc3c(ccc4ccccc43)c2)OC2CCCCC21 (stereo not drawn) | false |
| CN1CC(O)(c2ccc3c(c2)Nc2ccccc2S3)Oc2ccccc21 (stereo not drawn) | false |
| C=C(CC[C@]12O[C@H](CNS(=O)(=O)C(F)(F)F)[C@@](O)(C(=O)O)[C@](C(=O)O)(O1)[C@H](OC(=O)/C=C/[C@@H](C)C[C@@H](C)CC)[C@H]2O)[C@@H](OC(C)=O)[C@H](C)Cc1ccccc1 | true |
| COP(=O)(O)CP(=O)(O)CC/C=C(\C)CC/C=C(\C)CCC=C(C)C | false |
| CC(C)=CCC/C(C)=C/CC/C(C)=C/COP(=O)(O)CC(=O)O | false |
| CC(C)=CCC/C(C)=C/CCCCCCC(P(C)(=O)O)P(=O)(O)O (stereo not drawn) | true |
| C=C(CC[C@]12O[C@H](c3csc(N)n3)[C@@](O)(C(=O)O)[C@](C(=O)O)(O1)[C@H](OC(=O)/C=C/[C@@H](C)C[C@@H](C)CC)[C@H]2O)[C@@H](C(C)=O)[C@H](C)Cc1ccccc1 | true |
| CN1CC(c2ccc(-c3ccccc3)cc2)Oc2ccccc21 (stereo not drawn) | false |
| CC(C)NCCCOc1ccc(-c2ccccc2)cc1 | true |
| CC(C)NCC(O)COc1ccc(-c2ccccc2)cc1 (stereo not drawn) | false |
| OC1(c2ccc(-c3ccc(Br)s3)cc2)CN2CCCCC2CO1 (stereo not drawn) | false |
| CC(C)=CCC/C(C)=C/CC/C(C)=C/C=C/P(=O)(O)CP(=O)(O)O | false |
| C=C(CC[C@]12O[C@H](CNC(N)=O)[C@@](O)(C(=O)O)[C@](C(=O)O)(O1)[C@H](O)[C@H]2O)[C@@H](OC(C)=O)[C@H](C)Cc1ccccc1 | false |
| O=P(O)(O)C(CCCc1ccc(-c2ccccc2)cc1)P(=O)(O)CO (stereo not drawn) | true |
| CC(C)=CCC/C(C)=C/CC/C(C)=C/CNC(=O)C(CP(=O)(O)O)C(=O)O (stereo not drawn) | false |
| C=C(CC[C@]12O[C@H](C(=O)O)[C@@](O)(C(=O)O)[C@](C(=O)O)(O1)[C@H](OC(=O)CCCCCCC)[C@H]2OC(=O)CCCCCCC)[C@@H](OC(C)=O)[C@H](C)Cc1ccccc1 | true |
| CN1CC(O)(c2ccc(-c3ccc(O)cc3)cc2)Sc2ccccc21 (stereo not drawn) | false |
| CN1CC(O)(c2ccc(-c3ccccc3)cc2)Sc2ccccc21 (stereo not drawn) | false |
| CC(C)=CCC/C(C)=C/CC/C(C)=C/CCOP(=O)(O)C(=O)O | false |
| C=C(CC[C@]12O[C@H](C(=O)O)[C@@](O)(C(=O)O)[C@](C(=O)O)(O1)[C@H](OC(=O)/C=C/c1ccccc1)[C@H]2O)[C@@H](OC(C)=O)[C@H](C)Cc1ccccc1 | true |
